# assay-comment: Single dose clinical study: plasma Compound A pharmacokinetics
# Format: in vivo, human
# condition-parameters: human, plasma, po, 200 mg, plasma, healthy adults (Parts A,B), single oral 200 mg, fasted; read-out: AUC(0-30 h) GM
assay-metric: AUC(0-t)
Put down the number, then write its unit next to it.

Value lookup for AUC(0-t); key = COc1ncc(C)c(-c2ccc3c(c2)[nH]c(=O)c2cnn([C@H]4CCOC4)c23)c1C
9440 ng·h/mL

* * *

# assay-comment: Single dose clinical study: plasma Compound A pharmacokinetics
# Format: in vivo, human
# condition-parameters: human, plasma, po, 25 mg, plasma, Japanese Subjects (Part D), single oral 25 mg; read-out: Vz/F GM (% CV)
assay-metric: Vd/F (L)
Response body: numeric value in L, unit text excluded.

What does the data say about its Vd/F? Entry: COc1ncc(C)c(-c2ccc3c(c2)[nH]c(=O)c2cnn([C@H]4CCOC4)c23)c1C [Compound A]
165

* * *

# assay-comment: Single dose clinical study: plasma Compound A pharmacokinetics
# Type: in vivo, human
# condition-parameters: human, plasma, po, 25 mg, plasma, Non-Japanese Subjects (Parts A,B), single oral 25 mg; read-out: Vz/F GM (% CV)
assay-metric: Vd/F (L)
I only need the number, in L, no unit after it.

What does the data say about its Vd/F? Entry: COc1ncc(C)c(-c2ccc3c(c2)[nH]c(=O)c2cnn([C@H]4CCOC4)c23)c1C [Compound A]
216

* * *

# assay-comment: Multiple ascending dose study: plasma pharmacokinetics
# Format: in vivo
# condition-parameters: human, po, 25 mg, Day 1, 25 mg QD oral, read-out: Cmax GM (% CV)
# Method: Four sequential cohorts of healthy participants (≥50 years and ≤85 years old) were treated with multiple ascending doses of Compound A up to the maximum tolerated dose (MTD). A total of 6 participants per cohort were randomized to Compound A. Proposed doses of Compound A were: Participants received Compound A capsules, orally once daily (QD) on Days 1 to 14 after an overnight fast of at least 10 hours. Compound A was administered orally with 240 milliliter (mL) (8 fluid ounces) of water. […]
assay-metric: Cmax (ng/mL)
A number alone suffices; assume ng/mL.

What value of Cmax has been reported for the following compound? COc1ncc(C)c(-c2ccc3c(c2)[nH]c(=O)c2cnn([C@H]4CCOC4)c23)c1C [Compound A]
125

* * *

# assay-comment: Single dose clinical study: plasma Compound A pharmacokinetics
# Type: in vivo, human
# condition-parameters: human, plasma, po, 100 mg, Younger Adults (Parts A,B), single oral 100 mg; read-out: Cmax Geometric LS Means Reference
assay-metric: Cmax (ng/mL)
Provide only the numeric value, understood in ng/mL.

Which Cmax value is on record for COc1ncc(C)c(-c2ccc3c(c2)[nH]c(=O)c2cnn([C@H]4CCOC4)c23)c1C ?
373

* * *

# assay-comment: Single dose clinical study Parts A and C: urine Compound A pharmacokinetics
# Type: in vivo, human
# condition-parameters: human, po, 800 mg, healthy adults Part A, single oral 800 mg
assay-metric: CL renal (mL/min)
Numeric only. Scale: mL/min

Which value of CL renal has been reported for COc1ncc(C)c(-c2ccc3c(c2)[nH]c(=O)c2cnn([C@H]4CCOC4)c23)c1C [Compound A] in the records?
0.212

* * *

# assay-comment: Single dose clinical study Parts A and C: urine Compound A pharmacokinetics
# Format: in vivo, human
# condition-parameters: human, po, 200 mg, healthy adults Part A, single oral 200 mg
assay-metric: CL renal
Record the result as number plus unit.

Tell me the measured CL renal of COc1ncc(C)c(-c2ccc3c(c2)[nH]c(=O)c2cnn([C@H]4CCOC4)c23)c1C , please.
0.17 mL/min
